Values were extracted from ChEMBL document CHEMBL1157528.

tested on: Plasmodium berghei; experiment: Antimalarial activity as survival time against Plasmodium berghei KBG173 infected CD1 mice (Mus musculus) at 80 mg/kg/day peroral dose 3 - 5 days post infection; assay type: functional; conditions: route oral
# Survival per record follows
Form entry: value (days) — number only.

chem smiles	observable	readout value
CC(=O)O[C@H]1C[C@H]2[C@@H]([C@H](OC(C)=O)C[C@@H]3CC4(CC[C@@]32C)OOC(C)(C)OO4)[C@@H]2CC[C@H]([C@H](C)CCC(=O)O)[C@@]12C	Survival	15

[ask] Can you share its Survival? I mean this compound: `COC(=O)CC[C@@H](C)[C@H]1CC[C@H]2[C@@H]3[C@H](OC(C)=O)C[C@@H]4CC5(CC[C@]4(C)[C@H]3C[C@H](OC(C)=O)[C@]12C)OOC(C)(C)OO5`
[reply] 16

[ask] Item under review: `CC(=O)O[C@H]1C[C@H]2[C@@H]([C@H](OC(C)=O)C[C@@H]3CC4(CC[C@@]32C)OOC(C)(C)OO4)[C@@H]2CC[C@H]([C@H](C)CCC(=O)NCCN(C)C)[C@@]12C` . Reported Survival?
[reply] 14

[ask] Fill in: Survival of `CC(=O)O[C@H]1C[C@H]2[C@@H]([C@H](OC(C)=O)C[C@@H]3CC4(CC[C@@]32C)OOC(C)(C)OO4)[C@@H]2CC[C@H]([C@H](C)CCC(=O)Nc3ccccc3)[C@@]12C` is ___
[reply] 25

* * *

test system: Plasmodium falciparum; test: microbe, parasite or virus in culture; settings: D6
Description: Antimalarial activity against chloroquine and pyrimethamine-sensitive Plasmodium falciparum D6
observable: IC90 (nM)
Give just the number in nM; leave the unit off.

Some solved cases for reference:
chem smiles	IC90, nM
CC(=O)O[C@H]1C[C@H]2[C@@H]([C@H](OC(C)=O)C[C@@H]3CC4(CC[C@@]32C)OOC(C)(C)OO4)[C@@H]2CC[C@H]([C@H](C)CCC(=O)Nc3ccccc3)[C@@]12C	20.8
CNC(=O)CC[C@@H](C)[C@H]1CC[C@H]2[C@@H]3[C@H](OC(C)=O)C[C@@H]4CC5(CC[C@]4(C)[C@H]3C[C@H](OC(C)=O)[C@]12C)OOC(C)(C)OO5	78.3
C[C@H](CCC(N)=O)[C@H]1CC[C@H]2[C@@H]3[C@H](O)C[C@@H]4CC5(CC[C@]4(C)[C@H]3C[C@H](O)[C@]12C)OOC(C)(C)OO5	347

[ask] Quick check: IC90 of `CC(=O)O[C@H]1C[C@H]2[C@@H]([C@H](OC(C)=O)C[C@@H]3CC4(CC[C@@]32C)OOC(C)(C)OO4)[C@@H]2CC[C@H]([C@H](C)CCC(=O)N(C)C)[C@@]12C` ?
[reply] 71.5

[ask] Requested field: IC90. Item: `CCCNC(=O)CC[C@@H](C)[C@H]1CC[C@H]2[C@@H]3[C@H](OC(C)=O)C[C@@H]4CC5(CC[C@]4(C)[C@H]3C[C@H](OC(C)=O)[C@]12C)OOC(C)(C)OO5`
[reply] 16.2

[ask] I have this compound here, `C[C@@H]1CC[C@H]2[C@@H](C)C(=O)O[C@@H]3O[C@@]4(C)CC[C@@H]1[C@]32OO4` , and I need its recorded IC90.
[reply] 12.8

* * *

tested on: Plasmodium falciparum; test: microbe, parasite or virus in culture; conditions: W2
Description: Antimalarial activity against chloroquine and pyrimethamine-resistant Plasmodium falciparum W2
Listed next: entries and their corresponding IC90.
// units = nM; emit number, no label

// known answers, use as guide
chem smiles	IC90 (nM)
C[C@H](CCC(N)=O)[C@H]1CC[C@H]2[C@@H]3[C@H](O)C[C@@H]4CC5(CC[C@]4(C)[C@H]3C[C@H](O)[C@]12C)OOC(C)(C)OO5	234
CC(=O)O[C@H]1C[C@H]2[C@@H]([C@H](OC(C)=O)C[C@@H]3CC4(CC[C@@]32C)OOC(C)(C)OO4)[C@@H]2CC[C@H]([C@H](C)CCC(=O)Nc3ccccc3)[C@@]12C	14.3

Field: next compound
[ask] Entry `CC(=O)O[C@H]1C[C@H]2[C@@H]([C@H](OC(C)=O)C[C@@H]3CC4(CC[C@@]32C)OOC(C)(C)OO4)[C@@H]2CC[C@H]([C@H](C)CCC(=O)NN)[C@@]12C` , system Plasmodium falciparum: what IC90 was measured?
[reply] 22.9
